The molecules listed here are annotated with their residual activity.
STUDY_SYSTEM: Tyrosine-protein kinase Fes/Fps (Homo sapiens) (UniProt P07332)
Sequence (P07332 whole entry): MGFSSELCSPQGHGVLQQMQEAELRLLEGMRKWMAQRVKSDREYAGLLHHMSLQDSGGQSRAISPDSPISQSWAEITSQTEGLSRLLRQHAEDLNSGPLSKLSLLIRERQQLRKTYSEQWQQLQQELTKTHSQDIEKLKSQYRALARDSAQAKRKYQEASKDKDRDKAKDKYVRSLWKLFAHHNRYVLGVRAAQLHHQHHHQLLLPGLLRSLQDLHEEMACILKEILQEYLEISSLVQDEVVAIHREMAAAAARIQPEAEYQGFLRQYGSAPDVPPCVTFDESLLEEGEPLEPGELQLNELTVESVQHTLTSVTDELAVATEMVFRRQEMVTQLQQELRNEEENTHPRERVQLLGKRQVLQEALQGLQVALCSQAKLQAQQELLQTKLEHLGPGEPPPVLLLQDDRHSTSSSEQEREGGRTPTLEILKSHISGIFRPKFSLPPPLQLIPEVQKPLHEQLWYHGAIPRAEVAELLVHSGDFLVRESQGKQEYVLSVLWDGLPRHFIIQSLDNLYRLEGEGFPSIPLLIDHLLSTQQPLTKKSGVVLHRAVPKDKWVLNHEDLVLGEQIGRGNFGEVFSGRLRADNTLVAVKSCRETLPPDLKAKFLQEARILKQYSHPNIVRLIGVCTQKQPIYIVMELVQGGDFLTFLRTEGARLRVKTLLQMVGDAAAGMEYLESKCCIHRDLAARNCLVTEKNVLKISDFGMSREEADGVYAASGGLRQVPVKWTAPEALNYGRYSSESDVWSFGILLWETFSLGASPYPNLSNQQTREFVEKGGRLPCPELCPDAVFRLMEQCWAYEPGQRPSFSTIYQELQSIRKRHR
EXPERIMENTAL_CONTEXT: at 10 µM
EXPERIMENTAL_ENDPOINT: residual activity (%)

1) Cc1ccc(NC2=CC(=O)c3sc(C)nc3C2=O)cc1: 104
2) CCN(CC)C(=O)c1ccc(Nc2nc(OCC3CCCCC3)c3nc[nH]c3n2)cc1: 9
3) Oc1c2ccccc2c2c3c(cccc13)N=N2: 6
4) NC(=O)c1ccc2[nH]c(-c3ccc(Oc4ccc(Cl)cc4)cc3)nc2c1: 87
5) c1ccc(-c2n[nH]cc2-c2ccnc3ccccc23)nc1: 80
